Where do the numbers come from? From patent US10647721B2.

Form field: EC50 (one value per entry).
Tested on: γ-secretase
Assay: Cellular γ-secretase assay (inhibition of Aβ42 secretion, AlphaLisa)
Assay type: cell-based
Settings: human neuroglioma H4 cells overexpressing human APP695 Swedish double mutation, 24 hr compound incubation
A number alone suffices; assume nM.

Consider the worked cases shown below.
> print(dat)
                                item.smiles  readout.name  units.symbol  measured.result
1  Cc1cn(-c2ccc(Nc3nc4n(n3)CCCN4c3ccc(F)c(F)c3)cc2)nn1          EC50            nM             52.1
2  Cc1ncn(-c2ccc(Nc3nc4n(n3)CCCN4c3ccc(F)cc3)cc2OC(F)F)n1          EC50            nM             34.2
3  COc1cc(Nc2nc3n(n2)CCCCN3c2ccc(F)c(F)c2)ccc1-n1cnc(C(F)(F)F)c1          EC50            nM             61.9
4  COc1cc(Nc2nc3n(n2)CCCN3c2cc(F)cc(F)c2)ccc1-n1cnc(Cl)c1          EC50            nM              7.4
5  COc1cc(Nc2nc3n(n2)CCCN3c2ccc(F)cc2)ccc1-n1cnc(C)n1          EC50            nM             35.2
6  Fc1ccc(N2CCCn3nc(Nc4ccc(-n5cnc(Cl)c5)c(F)c4)nc32)cc1          EC50            nM             39.9

Q) Request the reported EC50 associated with "N#Cc1cc(Nc2nc3n(n2)CCCN3c2ccc(F)c(F)c2)ccc1-n1cnc(C(F)F)c1"
A) 23.8

Q) Then what about the molecule "Fc1ccc(N2CCCn3nc(Nc4ccc(-n5cnc(Cl)c5)c(Cl)c4)nc32)cc1F" ?
A) 137

Q) Then what about the molecule "COc1cc(Nc2nc3n(n2)CCCN3c2cccc(F)c2)ccc1-n1cnc(Cl)c1" ?
A) 14.1

Q) Then what about the molecule "Cc1ncnn1-c1ccc(Nc2nc3n(n2)CCCN3c2ccc(F)c(F)c2)cc1F" ?
A) 24.8

Q) Then what about the molecule "COc1cc(Nc2nc3n(n2)CCCN3c2ccc(F)c(F)c2F)ccc1-n1cnc(Cl)c1" ?
A) 13

Q) Then what about the molecule "Fc1ccc(N2CCCn3nc(Nc4ccc(-n5cnc(Cl)c5)cc4)nc32)cc1F" ?
A) 31.2

Q) Then what about the molecule "COc1cc(Nc2nc3n(n2)CCCN3c2ccc(F)c(F)c2)ccc1-n1cnc(F)c1" ?
A) 20.3

Q) Then what about the molecule "COc1cc(Nc2nc3n(n2)CCCN3c2ccc(F)cc2)cnc1-n1cnc(Cl)c1" ?
A) 13.8
